# Test system: SN12C renal
# assay procedure: NCI tumour cell line growth inhibition, 48 h
measure name: TGI (µM)
Give bare numbers, in µM.

Solved cases below.
| molecule | TGI (µM) |
| --- | --- |
| C=CCN1CCC23c4c5ccc(O)c4OC2C(=NN=C2CCC4(O)C6Cc7ccc(O)c8c7C4(CCN6CC=C)C2O8)CCC3(O)C1C5 (stereo not given) | 47.8 |
| CC(C)=CCc1cc(O)cc2c1OC(C=C(C)C)C1=C2C(=O)C2=C(C1=O)S(=O)(=O)CCN2 (stereo not given) | 5.45 |
| CC1CCN(C(=O)OCc2nc3nc(Cl)nc(N4CCOCC4)c3[nH]2)CC1 | 2.16 |

Moving on to another molecule below.
INPUT: Record CSc1ccccc1C#C/C=C\C#Cc1ccccc1N : what is its TGI with SN12C renal?
OUTPUT: 27.7

* * *

Reported GI50 for target or system NCI-H460 lung, by entry.

Past entries and their recorded results:
| compound | GI50 |
| --- | --- |
| BrCc1cccc(C[P+](c2ccccc2)(c2ccccc2)c2ccccc2)c1 | 25 µM |
| O=C1c2cc3c(cc2-c2c1c1cc(Cl)c(Cl)cc1c(=O)n2C[C@H](O)CO)OCO3 | < 0.01 µM |
| COC(=O)c1ccc(-c2c(C#N)[n+](=O)c3cc(Cl)c(Cl)cc3n2[O-])cc1 | 18.6 µM |
| COC(=O)C1=CN(CC2=CC(=O)C(C)=CC2=O)C=C(C(=O)OC)C1c1cccc(OC)c1 | 14.3 µM |

Parameter requested: GI50. Apply to each item below.
1. CC1(C)N=C(N)N=C(N)N1c1ccc(CCCCc2ccc(Cl)c(S(=O)(=O)F)c2)c(Cl)c1
2. C=CCc1ccc(O)c(-c2ccc(O)c(CC=C)c2)c1
3. CN1CC[C@@H](c2c(O)cc(O)c3c(=O)cc(-c4ccc(C(F)(F)F)cc4Cl)oc23)[C@@H]1CO
4. CC(C)OC(=O)[C@H](C)NP(=O)(OC[C@H]1O[C@@H](n2ccc(=O)[nH]c2=O)[C@](C)(F)[C@@H]1O)Oc1ccccc1 (stereo partly specified)
5. CS(=O)(=O)Nc1cc(-c2ccc3ncnc(Nc4c(Cl)ccc5c4OCO5)c3c2)cnc1Cl

OUTPUT:
1: 0.315 µM; 2: 14.1 µM; 3: 15.8 µM; 4: > 100 µM; 5: 0.236 µM

# map each compound to its GI50
1. Cn1c(Nc2ccc(C(F)(F)F)cc2)nc2cc(Oc3ccnc(-c4ncc(C(F)(F)F)[nH]4)c3)ccc21
2. CN(C)CCC(=O)C(=Cc1ccc(O)cc1)C(=O)CCN(C)C

OUTPUT:
0.197 µM
> 100 µM

* * *

# System: UO-31 renal
# assay procedure: NCI tumour cell line growth inhibition, 48 h
For each entry below, report its TGI value.

| molecule | TGI |
| --- | --- |
| CCOC(=O)c1nc2cc(F)c(N3CCOCC3)cc2[nH]c1=O | > 100 µM |
| CC(C)[Si]1(C(C)C)OCC2OC3(CO)C(Oc4nc(=O)ccn43)C2O[Si](C(C)C)(C(C)C)O1 (stereo unspecified) | 27.2 µM |
| CC1(C)OC2C(O)C(CO)OC2(C(F)F)O1 (stereo unspecified) | > 100 µM |
| COC(=O)c1nsc(OC)c1Cl | > 100 µM |
| O=c1c2ncn(C3CCCO3)c2n(-c2ccccc2)c(=S)n1-c1ccccc1 (stereo unspecified) | > 100 µM |

INPUT: Could you share which TGI value was measured for CC12CCC3c4ccc(O)cc4CCC3C1C/C(=N\O)C2O (stereo unspecified) ?
OUTPUT: > 100 µM
